- assay.procedure: Potentiation of doxorubicin-induced cytotoxicity in mouse L5178 cells assessed as combination index at ED50 in presence of 326:1 ratio of doxorubicin to test compound after 48 hrs by MTT assay
- Type: functional
# CI annotations
Respond using a number only.

Example results:
| smi | CI |
| --- | --- |
| CC(C)(F)CC[C@@H]1OC(C)(C)O[C@]1(C)[C@H]1CC[C@@]2(F)C3=CC(=O)[C@@H]4C[C@H]5OC(C)(C)O[C@H]5C[C@]4(C)[C@H]3CC[C@]12C | 0.72 |
| CC(C)(F)CC[C@@H]1OC(C)(C)O[C@]1(C)[C@H]1CC[C@@]2(O)C3=CC(=O)[C@@H]4C[C@H]5OC(C)(C)O[C@H]5C[C@]4(C)[C@H]3CC[C@]12C | 1.04 |
| CC(C)(O)CC[C@@H]1OC(C)(C)O[C@]1(C)[C@H]1CC[C@@]2(O)C3=CC(=O)[C@@H]4C[C@H]5OC(C)(C)O[C@H]5C[C@]4(C)[C@H]3CC[C@]12C | 0.61 |
| CC(C)(O)CC[C@@H]1OC(C)(C)O[C@]1(C)[C@H]1CC=C2C3=CC(=O)[C@@H]4C[C@H]5OC(C)(C)O[C@H]5C[C@]4(C)[C@H]3CC[C@@]21C | 0.9 |

Moving on to another compound below.
Inquiry: So what's the measured CI for this one? CC(C)(F)CC[C@@H]1OC(C)(C)O[C@]1(C)[C@H]1CC=C2C3=CC(=O)[C@@H]4C[C@H]5OC(C)(C)O[C@H]5C[C@]4(C)[C@H]3CC[C@@]21C
Reply text: 0.79

====

- measured.target: ATP-dependent translocase ABCB1 (Homo sapiens, UniProt P08183)
- Sequence (P08183 whole entry): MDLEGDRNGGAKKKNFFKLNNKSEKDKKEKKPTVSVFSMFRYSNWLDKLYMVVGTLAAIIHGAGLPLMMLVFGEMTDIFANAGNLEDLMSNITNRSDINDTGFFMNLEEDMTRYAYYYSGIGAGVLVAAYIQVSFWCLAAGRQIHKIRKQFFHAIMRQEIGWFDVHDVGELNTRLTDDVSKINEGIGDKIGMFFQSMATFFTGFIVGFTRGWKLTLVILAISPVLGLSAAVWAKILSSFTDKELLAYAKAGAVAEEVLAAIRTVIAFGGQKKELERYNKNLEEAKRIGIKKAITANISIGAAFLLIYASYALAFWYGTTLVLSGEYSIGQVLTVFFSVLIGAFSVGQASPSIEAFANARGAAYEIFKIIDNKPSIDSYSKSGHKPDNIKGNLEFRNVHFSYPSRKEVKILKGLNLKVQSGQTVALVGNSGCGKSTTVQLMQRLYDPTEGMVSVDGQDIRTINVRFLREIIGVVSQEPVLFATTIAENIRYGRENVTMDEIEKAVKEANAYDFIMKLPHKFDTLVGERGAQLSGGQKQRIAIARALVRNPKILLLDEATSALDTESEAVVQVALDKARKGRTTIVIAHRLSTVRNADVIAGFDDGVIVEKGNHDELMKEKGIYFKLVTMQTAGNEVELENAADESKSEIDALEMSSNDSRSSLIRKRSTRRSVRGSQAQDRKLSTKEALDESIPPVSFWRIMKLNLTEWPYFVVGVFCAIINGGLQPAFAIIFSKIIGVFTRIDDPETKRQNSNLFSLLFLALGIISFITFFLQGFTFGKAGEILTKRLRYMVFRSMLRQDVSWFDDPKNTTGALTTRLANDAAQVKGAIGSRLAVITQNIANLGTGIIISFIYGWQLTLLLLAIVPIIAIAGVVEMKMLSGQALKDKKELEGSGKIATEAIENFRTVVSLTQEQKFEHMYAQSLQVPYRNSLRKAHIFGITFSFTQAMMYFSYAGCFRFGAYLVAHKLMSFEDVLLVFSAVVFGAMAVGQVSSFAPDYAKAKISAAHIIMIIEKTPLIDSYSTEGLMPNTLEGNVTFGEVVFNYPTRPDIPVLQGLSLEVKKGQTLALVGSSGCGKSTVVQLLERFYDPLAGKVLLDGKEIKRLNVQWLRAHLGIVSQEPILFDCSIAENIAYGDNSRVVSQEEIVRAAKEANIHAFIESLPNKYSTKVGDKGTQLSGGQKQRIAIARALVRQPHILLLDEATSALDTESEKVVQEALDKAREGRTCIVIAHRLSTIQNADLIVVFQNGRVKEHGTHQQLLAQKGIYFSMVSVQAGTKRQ
- assay.procedure: Inhibition of human ABCB1 expressed in mouse L5178 cells assessed as rhodamine-123 accumulation by measuring fluorescence activity ratio at 2 uM pretreated for 10 mins followed by rhodamine-123 addition measured after 20 mins by flow cytometric analysis
- Format: cell-based
Decision: Ratio compared against 3; not below it gives Fulfilled, below it gives Not fulfilled.

Worked examples, 4 compounds total:
| smi | measured.target | qualitative.label |
| --- | --- | --- |
| CC(C)(F)CC[C@@H]1OC(C)(C)O[C@]1(C)[C@H]1CC[C@@]2(F)C3=CC(=O)[C@@H]4C[C@H]5OC(C)(C)O[C@H]5C[C@]4(C)[C@H]3CC[C@]12C | ATP-dependent translocase ABCB1 (Homo sapiens, UniProt P08183) | Fulfilled |
| CC(C)(O)CC[C@@H]1OC(C)(C)O[C@]1(C)[C@H]1CC[C@@]2(O)C3=CC(=O)[C@@H]4C[C@H]5OC(C)(C)O[C@H]5C[C@]4(C)[C@H]3CC[C@]12C | ATP-dependent translocase ABCB1 (Homo sapiens, UniProt P08183) | Fulfilled |
| CC(C)(O)CC[C@@H]1OC(C)(C)O[C@]1(C)[C@H]1CC=C2C3=CC(=O)[C@@H]4C[C@H]5OC(C)(C)O[C@H]5C[C@]4(C)[C@H]3CC[C@@]21C | ATP-dependent translocase ABCB1 (Homo sapiens, UniProt P08183) | Not fulfilled |
| CC(C)(F)CC[C@@H]1OC(C)(C)O[C@]1(C)[C@H]1CC[C@@]2(O)C3=CC(=O)[C@@H]4C[C@H]5OC(C)(C)O[C@H]5C[C@]4(C)[C@H]3CC[C@]12C | ATP-dependent translocase ABCB1 (Homo sapiens, UniProt P08183) | Not fulfilled |

Inquiry: Check the entry CC(C)(F)CC[C@@H]1OC(C)(C)O[C@]1(C)[C@H]1CC=C2C3=CC(=O)[C@@H]4C[C@H]5OC(C)(C)O[C@H]5C[C@]4(C)[C@H]3CC[C@@]21C : does Ratio equal or exceed 3?
Reply text: Fulfilled

====

- measured.target: UniProtKB P08183
- assay.procedure: Inhibition of human ABCB1 expressed in mouse L5178 cells assessed as potentiation of doxorubicin-induced cytotoxicity by measuring combination index at ED90 in presence of 10.2:1 ratio of doxorubicin to test compound after 48 hrs by MTT assay
- Assay type: cell-based
metric: CI
Respond using a number only.

Example results:
| smi | CI |
| --- | --- |
| CC(C)(F)CC[C@@H]1OC(C)(C)O[C@]1(C)[C@H]1CC[C@@]2(O)C3=CC(=O)[C@@H]4C[C@H]5OC(C)(C)O[C@H]5C[C@]4(C)[C@H]3CC[C@]12C | 0.16 |
| CC(C)(F)CC[C@@H]1OC(C)(C)O[C@]1(C)[C@H]1CC[C@@]2(F)C3=CC(=O)[C@@H]4C[C@H]5OC(C)(C)O[C@H]5C[C@]4(C)[C@H]3CC[C@]12C | 0.06 |
| CC(C)(O)CC[C@@H]1OC(C)(C)O[C@]1(C)[C@H]1CC[C@@]2(O)C3=CC(=O)[C@@H]4C[C@H]5OC(C)(C)O[C@H]5C[C@]4(C)[C@H]3CC[C@]12C | 0.11 |
| CC(C)(F)CC[C@@H]1OC(C)(C)O[C@]1(C)[C@H]1CC=C2C3=CC(=O)[C@@H]4C[C@H]5OC(C)(C)O[C@H]5C[C@]4(C)[C@H]3CC[C@@]21C | 0.22 |

Moving on to another molecule below.
Inquiry: So what's the measured CI for this one? CC(C)(O)CC[C@@H]1OC(C)(C)O[C@]1(C)[C@H]1CC=C2C3=CC(=O)[C@@H]4C[C@H]5OC(C)(C)O[C@H]5C[C@]4(C)[C@H]3CC[C@@]21C
Reply text: 0.39

====

- assay.procedure: Antiproliferative activity against mouse L5178 cells harboring human ABCB1 after 72 hrs by MTT assay
- Assay type: functional, cell-based
- applied.conditions: L5178, 72 h
metric: pIC50
# log scale: pIC50 equals minus log10 of the concentration in mol/L

Example results:
| smi | pIC50 |
| --- | --- |
| CC(C)(O)CC[C@@H]1OC(C)(C)O[C@]1(C)[C@H]1CC=C2C3=CC(=O)[C@@H]4C[C@H]5OC(C)(C)O[C@H]5C[C@]4(C)[C@H]3CC[C@@]21C | 4.71 |
| CC(C)(F)CC[C@@H]1OC(C)(C)O[C@]1(C)[C@H]1CC=C2C3=CC(=O)[C@@H]4C[C@H]5OC(C)(C)O[C@H]5C[C@]4(C)[C@H]3CC[C@@]21C | 4.76 |

Inquiry: So what's the measured pIC50 for this one? CC(C)(F)CC[C@@H]1OC(C)(C)O[C@]1(C)[C@H]1CC[C@@]2(F)C3=CC(=O)[C@@H]4C[C@H]5OC(C)(C)O[C@H]5C[C@]4(C)[C@H]3CC[C@]12C
Reply text: 4.08

====

- measured.target: ATP-dependent translocase ABCB1 (Homo sapiens, UniProt P08183)
- assay.procedure: Inhibition of human ABCB1 expressed in mouse L5178 cells assessed as potentiation of doxorubicin-induced cytotoxicity by measuring combination index at ED90 in presence of 20.4:1 ratio of doxorubicin to test compound after 48 hrs by MTT assay
- Format: cell-based
metric: CI
Respond using a number only.

| smi | CI |
| --- | --- |
| CC(C)(F)CC[C@@H]1OC(C)(C)O[C@]1(C)[C@H]1CC=C2C3=CC(=O)[C@@H]4C[C@H]5OC(C)(C)O[C@H]5C[C@]4(C)[C@H]3CC[C@@]21C | 0.28 |
| CC(C)(F)CC[C@@H]1OC(C)(C)O[C@]1(C)[C@H]1CC[C@@]2(O)C3=CC(=O)[C@@H]4C[C@H]5OC(C)(C)O[C@H]5C[C@]4(C)[C@H]3CC[C@]12C | 0.19 |
| CC(C)(O)CC[C@@H]1OC(C)(C)O[C@]1(C)[C@H]1CC[C@@]2(O)C3=CC(=O)[C@@H]4C[C@H]5OC(C)(C)O[C@H]5C[C@]4(C)[C@H]3CC[C@]12C | 0.07 |
| CC(C)(O)CC[C@@H]1OC(C)(C)O[C@]1(C)[C@H]1CC=C2C3=CC(=O)[C@@H]4C[C@H]5OC(C)(C)O[C@H]5C[C@]4(C)[C@H]3CC[C@@]21C | 0.37 |

Inquiry: So what's the measured CI for this one? CC(C)(F)CC[C@@H]1OC(C)(C)O[C@]1(C)[C@H]1CC[C@@]2(F)C3=CC(=O)[C@@H]4C[C@H]5OC(C)(C)O[C@H]5C[C@]4(C)[C@H]3CC[C@]12C
Reply text: 0.07

====

- measured.target: ATP-dependent translocase ABCB1 (Homo sapiens)
- assay.procedure: Inhibition of human ABCB1 expressed in mouse L5178 cells assessed as potentiation of doxorubicin-induced cytotoxicity by measuring combination index at ED75 in presence of 10.2:1 ratio of doxorubicin to test compound after 48 hrs by MTT assay
- Assay type: cell-based
Lab note: cut-off is 0.2. Strictly less in CI is 1 (yes). Exactly 0.2 or more is 0 (no).

| smi | qualitative.label |
| --- | --- |
| CC(C)(F)CC[C@@H]1OC(C)(C)O[C@]1(C)[C@H]1CC[C@@]2(F)C3=CC(=O)[C@@H]4C[C@H]5OC(C)(C)O[C@H]5C[C@]4(C)[C@H]3CC[C@]12C | 1 (yes) |
| CC(C)(O)CC[C@@H]1OC(C)(C)O[C@]1(C)[C@H]1CC=C2C3=CC(=O)[C@@H]4C[C@H]5OC(C)(C)O[C@H]5C[C@]4(C)[C@H]3CC[C@@]21C | 0 (no) |
| CC(C)(O)CC[C@@H]1OC(C)(C)O[C@]1(C)[C@H]1CC[C@@]2(O)C3=CC(=O)[C@@H]4C[C@H]5OC(C)(C)O[C@H]5C[C@]4(C)[C@H]3CC[C@]12C | 1 (yes) |
| CC(C)(F)CC[C@@H]1OC(C)(C)O[C@]1(C)[C@H]1CC[C@@]2(O)C3=CC(=O)[C@@H]4C[C@H]5OC(C)(C)O[C@H]5C[C@]4(C)[C@H]3CC[C@]12C | 1 (yes) |

Please examine the following record next.
Inquiry: Here's an entry: CC(C)(F)CC[C@@H]1OC(C)(C)O[C@]1(C)[C@H]1CC=C2C3=CC(=O)[C@@H]4C[C@H]5OC(C)(C)O[C@H]5C[C@]4(C)[C@H]3CC[C@@]21C . Is its CI below 0.2?
Reply text: 0 (no)
